These entries and their values trace back to the nanobody polyreactivity screen of Harvey et al. (2022).

Assay: yeast display, Sf9 membrane polyspecificity reagent, FACS + sequencing; frameworks hold sequencing errors
RECORDED_ENDPOINT: polyreactivity (PSR sort gate)

Worked cases, answers included:
QVQLVESGGGLVQAGGSLRLSCAASGSTFKYYAMGWYRQAPGKERELVATITRRSGSTYYADSVKGRFTISRDNAKNTVYLQMNSLKPEDTAVYYCNAYGPYKYNYWGQGTQVTVSS :: high polyreactivity
QVQLVESGGGLVQAGGSLRLSCAASGRIFPYYAMGWYRQAPGKERELVAAISYSGGRTYYADSVKGRFTISRDNAKNTVYLQMNSLKPEDTAVYYCSAVVYLGYEYDYWGQGTQVTVSS :: low polyreactivity
QVQLVESGGGLVQAGGSLRLSCAASGRTFSRYAMGWYRQAPGKERELVAAISSSGGSTYYADSVKGRFTISRDNAKNTVYLQMNSLKPEDTAVYYCAKYFIRDNRYDYWGQGTQVTVSS :: high polyreactivity
QVQLVESGGGLVQAGGSLRLSCAASGRIFAGYAMGWSRQAPGKERELVASIRSSGSTYYADSVKGRFTISRDNAKNTVYLQMNSLKPEDTAVYYCATTGRRWYYPYHYWGQGTQVTVSS :: high polyreactivity

# next sequence below
Q: Which measured polyreactivity (PSR sort gate) value corresponds to QVQLVESGGGLVQAGGSLRLSCAASGYTFGTYDMGWYRQAPGNERELGAAISLGGSTNYADSVKGPFTISRDNAKNTVYLQMYSLKPEDTAVYYCAAEVNVGTLLLSVIVEDGDYWGQGTQVTVSS ?
A: low polyreactivity

---

Test: yeast display, Sf9 membrane polyspecificity reagent, FACS + sequencing; frameworks hold sequencing errors
RECORDED_ENDPOINT: polyreactivity (PSR sort gate)

Examples with answers:
QVQLVESGGGLVQAGGSLRLSCAASGIIFELYAMGWYRQAPGKERELVAAISISGDSTYYADSVTGRFTISRDTAKNTVYLQMKSLKPEDTAVYYCAKQSYRWPYLVTKYYEYDYWGQGTQVTVSS :: low polyreactivity
QVQLVESGGGLVQAGGSLRLSCAASGRIFGPYAMGWYRQAPGKERELVAAISQRGGTTYYADSVKGRFTISRDNAKNTVYLQMNSLKPEDTAVYYCAAKTYGWGQGTQVTVSS :: high polyreactivity
QVQLVESGGGLVQAGGSLRLSCAASGITFVTYAMGWYRQAPGKERELVAAISRSGGRTYYADSVKGRFTISRDNAKNTVYLQMNSLKPEDTAVYYCAAERKNKYDYWGQGTQVTVSS :: high polyreactivity
QVQLVESGGGLVQAGGSLRLSCAASGRTFRRNTMGWYRQAPGKERELVAAISNRGTSTYYADSVKGRFTFSRDNAKNTVYLQMNSLKPEDTAVYYCAAREKYISYSYYYWGQGTQVTVSS :: high polyreactivity
QVHLVESGGGLVQAGGSLRLSCAASGRPFYIYAMGWYRPAPGKERELVAAITWSGGTTYYADSVKGRFTISRDTANNTVYLQMNSQKPQDTAVYYCNASFRRGFDYWGQGTQVTVSS :: low polyreactivity
QVQLVESGGGLVQAGGSLRFSCAASGRIFTPYAMGWYRQAPGKERELVAVIRDGSTYYADSVKGRFTISRDNAKNTVYLQMNSLKPEDTAVYYCRYDIWVWWSGAYDYWGQGTQVTVSS :: low polyreactivity

Q: Query: polyreactivity (PSR sort gate); subject: QVQLVESGGGLVHAGGSLRLSCAPSGSIFTPYAMGWYRQAPAKDRELVADNTYRGGSTYYADSVKGRFTISRDNAKNSVYLQINSLKAEDSAVYYCNADVFTDYRHTRDDYWGQGTQVTVSS
A: low polyreactivity

Q: What value of polyreactivity (PSR sort gate) has been recorded for this entry: QVQLVESGGGLVQAGGSLRLSCAASGRTFRQYAMGWYRQAPGQETELVAAITWDGGSTYYADSVKGRFTISRDNAKNPVYLQMNSLKPEDTAVYYCAKLLGGTYYEYDYWGQGTQVTVSS
A: low polyreactivity

Q: Which polyreactivity (PSR sort gate) is listed for QVQLVESGGGLVKAGGSLRLSFAAYGSNFPRYALGWYRQATGKERELVASITSDGGSTYYADSVKGRFTISRDNAKNTVYLQMNSLKPEDTAVYYCNKVPYRGYRRYGYWGQGTQVTVSS ?
A: high polyreactivity

Q: Recorded polyreactivity (PSR sort gate) of QVQLVESGGGLVQAGCSLRLSCAASGSIFYGYAMGWYRQAPGKERELVAAISYSGDRTYYADSVKGRFTISRDNAKNSVYLQMNSLKPEDTAVYYCAAQRRYGDDYWGQGTQVTVSS , please.
A: high polyreactivity

Q: Consider the sequence shown here: QVQLVESGGGLVQAGGSLRLSCAASGITFLKNAMGWYRQAPGKESELVAAISSSGGSTYYADSVKGRFTISRDNAKNTVYLQMNSLKPEDTAVYYCAARIYWYTPGRRGYTYDYWGQGTQVTVSS What is its recorded polyreactivity (PSR sort gate)?
A: high polyreactivity

---

Test: yeast display, Sf9 membrane polyspecificity reagent, FACS + sequencing; frameworks hold sequencing errors
RECORDED_ENDPOINT: polyreactivity (PSR sort gate)

Previously resolved entries follow.
QVQRVESGGGLVQAGGSLRLSCSASGRTFGHNTMGRYRQAPGKETEFVAAIDFNGGSTYYADSVKGRFTISRDNAQNTVYLQMNSLKPEDTAVYYCAADIYFYYYGSYDYWGQGTQVTVSS :: low polyreactivity
QVQLVESGGGLVQAGGSLRLSCAASGNTFRNYAMGWYRQAPGKERELVAAISWTGARTYYADSVKGRFTISRDNAKNTVYLQMNSLKPEDTAVYYCARPLQWWSPSGTVDYGYWGQGTQVTVSS :: high polyreactivity
QVQLVESGGGLVQAGGSLRLSCAASGRTFFDYSMGWYRQAPGKERELVAAITGGDGSTYYADSVKGRFTISRDNAKNTVYIQMNSLKTEDTAVYYCAAENTRTYWYAAMDYWGQGTQVTVSS :: low polyreactivity
QVQLVESGGGLVQAGGSLRLSCAASGRIFTYNTMGWYRQATGKEREFVASITYSGSSTYYADSVKGRFTISRDNAKNTVYLQMNSLKPEDTAVYYCATRYGYSDGDYWGQRTQVTVSS :: low polyreactivity

Q: Value lookup for polyreactivity (PSR sort gate); key = QVQLVESGGGLVQAGGSLRLSCAASGNIFRINGMGWYRQAPGKERELVASITRSGSTYYADSVKGRFTISRDNANNTVYLKMNSLKPEDTAVYYCAADSRRYGVRFDYWGQGTQVTVSS
A: low polyreactivity

Q: I am curious: what polyreactivity (PSR sort gate) value has been reported for QVQLVESGGGLVQAGGSLRLSCAASGFIFTRYAMGGYRHAPGKERELVAAISWSGGRTYYADSVKGRFTISRDNANNTVYLQMNSLKPEDTAVYYCAARWVRIRFDYWGQGTQVAVSS ?
A: high polyreactivity

Q: Recorded polyreactivity (PSR sort gate) of QVQLVESGRGLVQAGGSLRLSCAASGFTFPNYAMGWYRQAPGKERELVASITRRAGSTNYADSVKGRFTISRDNAKNTVYLQMNSLKPEDTAVYYCNTVVLRYLYNYWGQGTQVTVSS , please.
A: high polyreactivity

Q: Suppose we examine the sequence QVQLVESGGGLVQAGGSLRLSCAASGLIFSYNAMGWYRQAPGKERELVATIRRVGSTNYADSVKGRFTISRDNAKNTVYLQMNSLKPEDTAVYYCAARSLRYGRGMYYWGQGTQVTVSS ; what polyreactivity (PSR sort gate) value has been reported?
A: high polyreactivity

Q: // lookup polyreactivity (PSR sort gate) for QVQLVESAGGLVQAGGSLRLSCAASGFTFYYYTMGWYRQAPGKETELVAAITWRGGSTNYADSVKGRFTISRDNAKNTVYLQMNSLKPEDTAVYYCAAVSYWFWPGMDYWGQGTQVTVSS
A: low polyreactivity

Q: What value of polyreactivity (PSR sort gate) has been recorded for this entry: QFQLVESGGGLVQAGGSLRLSCAASGSIFSYNAMGWYIQAPGKERELVASITSGGRTYYADSVKGRFTISRDNAKNTVYLQMYSLKPEDTAVYYCAAYQTGLHGFYSWGQGTQVTVSS
A: high polyreactivity

Q: For the sequence QVQLVESGGGLVQAGGSLRLSCAASGSTFRTYAMGWYRQAPGKERELVAAISGDTSTNYADSVKGRFTISRDNAKNTVYLQMNSLKPEDTAVYYCAAYWTTYATLWYDYWGQGTQVTVSS , what polyreactivity (PSR sort gate) is on record?
A: low polyreactivity

---

Assay: yeast display, Sf9 membrane polyspecificity reagent, FACS + sequencing; frameworks hold sequencing errors
RECORDED_ENDPOINT: polyreactivity (PSR sort gate)

QVQLVESGGGLVQAGGSLRLSCAASGSIFSYYAMGWYRQAPGKERELVAAISYSGSDTYYADSVKGRFTISRDNAKNTVSFQMNSLKPEDTAVYYCAAEDPSYSYHYWGQGTQVTVSS :: low polyreactivity
QVQLVESGGGLVQAGGSLRLSCAASGRIFRGYTMGWYRQAPGKEREFVAAITANGGRTYYADSVKGRFTISRDNAKNTVYLKMNSLKPEDTAVYYCNARTYTYRGSFDYWVQGTQVTVSS :: high polyreactivity
QVQLVESGGGLVQAGGSLRLSCAASGLIFVQYVMGWYRQAPGKERELVAAITEDGNTYYADSVKGRFTISRDNAKNTVYLQMNSLKPEDTAVYYCNAVLRSYDFWTGYGYWGQGTQVTVSS :: low polyreactivity
QVQLVESGGGLVQAGGSLRLSCAASGSIFWSNDMGWYRQAPGKERELVAAITITGDTTYYADSVKGRFTISRDNAKNTVYLQMNSLKPEDTAVYYCAAVEVRRVADYGFCLLDYWGQGTQVTVSS :: high polyreactivity
QVQLVESGGGLVQAGGSLRLSCAASGFIFRWYAKGWYRQAPGKERELVATITRSGGSTYYADSVKGRFTSSRDNAKNTVYLQMNSLKPEDTAVYYCNAGYSYKYYYWGQGTQVTVSS :: high polyreactivity

Q: Fill in the blank: the reported polyreactivity (PSR sort gate) of QVQLVESGGGLVQAGGSLRLSCAASGRTYWPNALGWSRQARGKERELVAAISWRGGSTSYADSVKGRFTISRDNAKNTVYLQMNRLKPEDTAVYYCAATSIRRNSKVLISGRLYDYWGQGTQVTVSS is ____.
A: high polyreactivity

Q: So what's the measured polyreactivity (PSR sort gate) for this one? QVQLQESGGGLLQAGGSLRLSYAASGYMFPYLAMGWYRQAPGKEREFVAAIGRGSTNNYADSVKGRFTISRDNAKNTAFQQMNSLKPEDTAVYYCAAAASPLTRHLYWGQGSQVTVSS
A: low polyreactivity

Q: What does the record list as polyreactivity (PSR sort gate) for QVQLVESGGGLVQAGGSLRLSCAASGRIFNRYAMGWYRQAPGKERELVAAITSGGDTNYADSVKGRFTISRDNAKNTVYLQMNSLKPEETAVYYCAAYLYPWYSRYYYWGQGTQVTVSS ?
A: high polyreactivity
